# PROTOCOL DETAILS: Re-testing in dose-response curve in HepG2 cytotoxicity assay, at 72h
# Assay type: toxicity, cell-based
# Set-up: timepoint 72 hour
# CONDITION PARAMETERS: human, HepG2 cells
Below, each entry is listed alongside its reported IC50 at 72 h.

# RECORD SMILES, IC50 at 72 h
measured = [
    ("COc1ccc(CC(=O)Nc2cc(C)n(-c3cccc(Cl)c3)n2)cc1", "> 25 µM"),
    ("O=C(Nc1cc(N2CCCS2(=O)=O)ccc1O)c1cccc(Oc2cccc(C(F)(F)F)c2)c1", "20.8 µM"),
    ("CC(C)N(CC(=O)Nc1nccs1)Cc1ccccn1", "> 24.8 µM"),
    ("CN(C)Cc1ccc(NC(=O)c2cc(F)cc3c(=O)c4cc(F)ccc4[nH]c23)cc1", "2.86 µM"),
    ("CCC1=C(c2ccc(C)cc2)S(=O)(=O)N=C1N1CCC(C(=O)NCCN2CCCC[C@@H]2C)CC1", "> 25 µM"),
    ("O=C(Nc1cnc2ccccc2c1)c1ccccc1C(=O)c1ccc(F)cc1", "> 25 µM"),
    ("COc1ccc(-c2cc(C(=O)N[C@H]3CCN(c4ccc(=O)n(C)n4)C3)c(C)n2C)cc1", "> 25 µM"),
    ("CN(CCNC(=O)CCc1cn(-c2ccccc2)nc1-c1ccc2c(c1)OCO2)C1CCCCC1", "~9.24 µM"),
    ("CC(C)c1ccc(-c2nc(CN3CCCCC3)cc(CN3CCCCC3)c2O)cc1", "> 25 µM"),
    ("COc1ccnc(CN2CCC[C@H](c3nc(-c4ccccc4)c[nH]3)C2)c1OC", "10.2 µM"),
]

----------
# Test system: Plasmodium falciparum
# PROTOCOL DETAILS: Hit confirmation in dose-response curve in NF54 nanoGlo assay, at 72h
# Assay type: functional, organism-based, Erythrocyte
# Set-up: timepoint 72 hour
# CONDITION PARAMETERS: Plasmodium falciparum, NF54, Erythrocyte, 72 h
Below, each entry is listed alongside its reported log10 IC50.
QUANTITY NAME: log10 IC50 (log10 of the value in nM)

# COMPOUND, log10 IC50
data = [
    ("CCCc1cc(-c2nc(-c3ccc(-n4nc(C)cc4N)cc3)no2)n(C)n1", 2.94),
    ("CC(C)(C)[C@H]1CCc2c(sc(NC(=O)C3(F)C(F)(F)C(F)(F)C(F)(F)C(F)(F)C3(F)F)c2C#N)C1", 3.34),
    ("O=S(=O)(c1cccc(Cl)c1)N1CCc2nc(N3CCCCC3)nc(Oc3ccccc3)c2C1", 3.29),
    ("Cc1ccnc(Nc2ccc(N3CCNCC3)nn2)c1", 3.21),
    ("Cc1cccc2ncnc(N(C)[C@@H](C)Cc3ccc(O)cc3)c12", 3.27),
    ("Cc1n(CC(=O)c2ccccc2)c2ccccc2[n+]1CC(=O)c1ccccc1", 3.02),
    ("CCc1ccc(/C=C/c2c[nH]c3ccccc23)[n+](CC)c1", 2.42),
    ("CCNc1nc(C)cc(Nc2ccc(NS(=O)(=O)c3c(C)noc3C)cc2)n1", 3.43),
    ("CC(C)C(NC(=O)COc1ccccc1)C(=O)NCC(c1ccccc1Cl)c1c[nH]c2ccccc12 (stereo not given)", 3.38),
    ("Cc1cc(-c2cc(O)cc(CC[C@H]3CCCCN3)c2)ccn1", 2.70),
    ("CCc1cccc(NC(=O)Cn2ccc3ccc(-c4nnc(C)o4)cc32)c1", 3.26),
    ("C[n+]1ccc(-c2ncc(-c3ccccc3)o2)c2ccccc21", 2.88),
    ("Cc1cc(Br)cc(N[C@H](c2cccnc2)c2ncc[nH]2)c1", 3.53),
    ("Nc1nc(N2CCN(c3ccc(F)c(Cl)c3)CC2)cc([C@H]2C[C@@H](N)C2)n1", 3.44),
    ("CCOc1ccc(-c2cc(NC(=O)c3cc(-c4cccnc4)nc4ccccc34)on2)cc1OCC", 3.28),
    ("CCOc1cc(C(c2c(C)n(C)n(-c3ccccc3)c2=O)c2c(C)n(C)n(-c3ccccc3)c2=O)ccc1OCc1ccccc1", 3.27),
    ("CC(C)C(=O)Nc1ccc(-c2cc(-c3ccc(NC(=O)C(C)C)cc3)nc(-c3ccncc3)n2)cc1", 3.67),
    ("CCc1cccc(NC(=O)N2CCC3(CC2)C(=O)N(CC(=O)Nc2ccc(F)cc2)CN3c2ccccc2)c1", 3.48),
    ("O=c1[nH]c(=O)n(S(=O)(=O)c2ccccc2)cc1F", 0.44),
]

----------
Below, each entry is listed alongside its reported IC50.
# Test system: Plasmodium falciparum
# PROTOCOL DETAILS: Hit confirmation in dose-response curve in NF54 nanoGlo assay, at 72h
# Assay type: functional, organism-based, Erythrocyte
# Parameters: timepoint 72 hour
# CONDITION PARAMETERS: Plasmodium falciparum, NF54, Erythrocyte, 72 h
QUANTITY NAME: IC50 (µM)

# COMPOUND, QUANTITY NAME, REPORTED RESULT
data = [
    ("Cc1noc(Cl)c1CC(=O)N1CCCC(C)(C)CC1", "IC50", 2.29),
    ("COCCNC(=O)c1ccc(-n2nc(-c3nnc(C)o3)c(C)c2-c2ccc(OC)cc2)cc1", "IC50", 3.24),
    ("O=S(=O)(Nc1cccc2cccnc12)c1cccs1", "IC50", 1.82),
    ("CC(C)CC[C@@H](CCNCCN(C)C)c1ccc(Cl)cc1", "IC50", 0.562),
    ("COc1ccc(-c2cc3n(n2)C[C@@](C)(C(=O)NCc2ccccc2OC)N(c2cccc(OC)c2)C3=O)cc1", "IC50", 3.02),
    ("CN1CCN([C@H]2CCN(c3ccnc4ccc(Cl)cc34)C[C@H]2CCCO)CC1", "IC50", 1.74),
    ("COc1ccccc1N(Cc1ccccc1)C1=NC(=[N+](Cc2ccccc2)c2ccccc2OC)c2ccccc21", "IC50", 2.82),
    ("O=C(c1cc2ccccc2[nH]1)N1CCc2sc(Cl)cc2C1", "IC50", 7.76),
    ("O=C(Nc1cnc(-n2ccnc2)nc1)C(c1ccccc1)c1ccccc1", "IC50", 2.45),
    ("COc1ccc(-c2cc(C(=O)N[C@H]3CCN(c4ccc(=O)[nH]n4)C3)c(C)n2C)cc1", "IC50", 0.501),
    ("N#Cc1cccc(-c2n[nH]c3c2CN(c2ccc(-c4ccccc4)nn2)CC3)c1", "IC50", 1.2),
    ("Cc1nnc(NC(c2cnc3ccccc3c2)[C@H]2C[C@@H](O)C2)s1 (stereo partly specified)", "IC50", 4.07),
    ("O=C(N1CCCN(c2nc3ccccc3nc2-c2ccccc2)CC1)C(Cl)(Cl)Cl", "IC50", 2.88),
    ("Cc1cc(=O)[nH]c(-n2nc(C3CC3)cc2NC(=O)c2ccc(C(C)(C)C)cc2)n1", "IC50", 1.86),
    ("Oc1cccc(CN2CCC3(CC2)C[C@H](c2ccccc2)CN(C2CC2)C3)c1", "IC50", 3.24),
    ("COc1nc(NC[C@H]2CCCN2C(C)C)ncc1F", "IC50", 1.32),
    ("CC[C@@]1(C)CCCN(C(=O)Cc2c(C)noc2Cl)C1", "IC50", 1.51),
    ("Cc1ccc(S(=O)(=O)Nc2cc3nc4ccccc4nc3n2CCc2ccccc2)cc1", "IC50", 2.34),
    ("O=C(Nc1c(S(=O)(=O)c2ccccc2)c2nc3ccccc3nc2n1CCc1ccccc1)c1ccc(Cl)cc1", "IC50", 1.1),
    ("Cc1oc2ncn(CCN3CCCC3)c(=O)c2c1C(=O)Nc1ccc(C#N)cc1", "IC50", 2.63),
    ("CCNC(=O)c1csc(COc2ccc3c(c2)[C@H](c2ccc(C)cc2)N(C(=O)CC(C)C)CC3)n1", "IC50", 3.55),
]

----------
# PROTOCOL DETAILS: Hit confirmation in dose-response curve in HepG2 cytotoxicity assay, at 72h
# Format: toxicity, cell-based
# Design: timepoint 72 hour
# CONDITION PARAMETERS: human, HepG2 cells
QUANTITY NAME: IC50 at 72 h

# COMPOUND, REPORTED RESULT
records = [
    ("Cc1ccc(S(=O)(=O)c2c(NS(=O)(=O)c3ccccc3)n(CCc3ccccc3)c3nc4ccccc4nc23)cc1", "> 10 µM"),
    ("Cc1nn(-c2ccccc2)c2nc(Cc3ccccc3)nc(N3CCCN(C(=O)NC4CCCCC4)CC3)c12", "> 10 µM"),
    ("CC1CCN(Cc2ccc(CNCc3c[nH]nc3-c3ccc(F)cc3)cc2)CC1", "> 10 µM"),
    ("CCOC(=O)C1CCC(CN(Cc2ccc(OC)cc2)S(=O)(=O)c2cc(C(=O)Nc3ccc(OCC)cc3)ccc2F)CC1 (centres undefined)", "> 10 µM"),
]
